compounds and their reported solubility kinetic
appliedConditions: buffer; pH 7.4; 200.0 µM
Kindly provide the numeric value in µg/mL only, without the unit symbol.

| compound | solubility kinetic / µg/mL |
| --- | --- |
| COc1ccc(NC(=O)c2cc(S(=O)(=O)N3CCCC3)oc2C)cc1 | 2.5 |

Item under review: CC(C)[C@H](NC(=O)c1ccccc1)C(=O)OCC(=O)Nc1sccc1C(N)=O . Reported solubility kinetic?
19

Item under review: O=C(CN1C(=O)NC2(CCCC2)C1=O)NCc1cccc(Cl)c1 . Reported solubility kinetic?
42.4

Item under review: CC(=O)N1CCN(CC(c2ccccc2)c2ccccc2)CC1 . Reported solubility kinetic?
38.7

Item under review: CCOC(=O)c1sc(=NC(=O)COc2ccccc2)n(C)c1C . Reported solubility kinetic?
1.4

Item under review: CN(C)CCCNc1nc(-c2ccccc2)nc2ccccc12.Cl . Reported solubility kinetic?
44.1

Item under review: Cc1ccc(OC(C)C(=O)Nc2cc(C)on2)cc1 (stereo unspecified) . Reported solubility kinetic?
36.2

====

compounds and their reported solubility kinetic
appliedConditions: buffer; pH 7.4; 200.0 µM

Consider the following illustrative entries.
| compound | reportedMeasurement |
| --- | --- |
| Cc1c(C(=O)NC(C)C2CC3CCC2C3)cccc1[N+](=O)[O-] (centres undefined) | 34.3 µg/mL |
| NC(=O)c1cc(-c2csc(NCCc3ccccc3)n2)ccc1O | 8 µg/mL |
| Nc1ccc(C(=O)O)cc1 | > 20.6 µg/mL |
| CCOc1ccc(Nc2nc(N)c([N+](=O)[O-])c(NCc3ccccc3)n2)cc1 | < 0.1 µg/mL |
| O=C(CCS(=O)(=O)c1ccccc1Cl)NC1CCCCCC1 | > 51.6 µg/mL |

Item under review: O=C(CSc1ccccc1F)NC(=O)c1ccccc1Br . Reported solubility kinetic?
> 55.2 µg/mL

Item under review: COC(=O)CC(NC(=O)C1CC1)c1ccc2c(c1)OCO2 (centres undefined) . Reported solubility kinetic?
> 43.7 µg/mL

Item under review: CCn1c(SCC(=O)N2CCOCC2)nnc1-c1ccco1 . Reported solubility kinetic?
> 48.4 µg/mL

Item under review: Cc1ccc(CNC(=O)CCCC(=O)c2ccccc2)cc1 . Reported solubility kinetic?
7.9 µg/mL

Item under review: CN1CCN/C1=C(/C(Cl)=C(Cl)Cl)[N+](=O)[O-] . Reported solubility kinetic?
> 40.9 µg/mL

Item under review: CCCN1CCC(NC(=O)Nc2cccc3ccccc23)CC1 . Reported solubility kinetic?
> 46.7 µg/mL

Item under review: O=C(COc1ccccc1F)NCCc1ccc2c(c1)OCCO2 . Reported solubility kinetic?
> 49.7 µg/mL

Item under review: Cc1ccc(NC(=O)C2CCCCC2C(=O)O)cc1Cl (centres undefined) . Reported solubility kinetic?
> 44.4 µg/mL

Item under review: C=CCN(C(=O)COC(=O)c1cc[n+]([O-])cc1)c1nc(-c2ccccc2)cs1 . Reported solubility kinetic?
6.1 µg/mL

Item under review: COc1cccc(NC(=O)CSc2nc(C3CC3)nc3ccccc23)c1 . Reported solubility kinetic?
< 0.3 µg/mL

Item under review: CC(C)(C)c1ccc(C(=O)NCC(=O)N2CCNC(=O)C2)cc1 . Reported solubility kinetic?
> 47.6 µg/mL

Item under review: CCN(CC)CCC/C(=N\O)C(O)(c1ccccc1)c1ccccc1 . Reported solubility kinetic?
> 51.1 µg/mL

Item under review: Cc1cc(C)c(OCC(=O)OC(C)C(=O)NC2CC2)c(C)c1 (centres undefined) . Reported solubility kinetic?
> 45.8 µg/mL

meta.source: PubChem BioAssay AID1996
